Molecular target: sGC α1/β1 heterodimer (Homo sapiens, UniProt Q02108+Q02153)
Construct: expressed in transfected cells; host or cells: CHO-K1 (clone #7, CHO-K1/sGC)
Sequence (Q02108 whole entry): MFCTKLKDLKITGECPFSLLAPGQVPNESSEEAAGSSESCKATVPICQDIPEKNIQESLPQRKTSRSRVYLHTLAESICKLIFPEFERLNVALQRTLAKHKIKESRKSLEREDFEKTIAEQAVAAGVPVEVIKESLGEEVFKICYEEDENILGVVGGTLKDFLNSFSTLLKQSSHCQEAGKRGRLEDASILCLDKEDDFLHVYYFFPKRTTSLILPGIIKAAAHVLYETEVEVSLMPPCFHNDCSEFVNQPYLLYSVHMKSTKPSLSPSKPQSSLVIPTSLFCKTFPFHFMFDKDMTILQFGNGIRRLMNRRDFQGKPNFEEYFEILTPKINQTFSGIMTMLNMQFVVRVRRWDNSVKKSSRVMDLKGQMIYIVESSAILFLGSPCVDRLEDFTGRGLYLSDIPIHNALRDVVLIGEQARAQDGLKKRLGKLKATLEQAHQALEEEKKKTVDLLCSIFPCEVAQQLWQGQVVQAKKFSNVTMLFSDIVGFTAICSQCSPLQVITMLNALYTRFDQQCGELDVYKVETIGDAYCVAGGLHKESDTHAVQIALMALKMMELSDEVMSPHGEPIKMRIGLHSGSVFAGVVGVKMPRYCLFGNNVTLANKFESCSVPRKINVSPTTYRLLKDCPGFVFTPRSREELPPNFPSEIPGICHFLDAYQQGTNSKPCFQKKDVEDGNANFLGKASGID
Sequence (Q02153 whole entry): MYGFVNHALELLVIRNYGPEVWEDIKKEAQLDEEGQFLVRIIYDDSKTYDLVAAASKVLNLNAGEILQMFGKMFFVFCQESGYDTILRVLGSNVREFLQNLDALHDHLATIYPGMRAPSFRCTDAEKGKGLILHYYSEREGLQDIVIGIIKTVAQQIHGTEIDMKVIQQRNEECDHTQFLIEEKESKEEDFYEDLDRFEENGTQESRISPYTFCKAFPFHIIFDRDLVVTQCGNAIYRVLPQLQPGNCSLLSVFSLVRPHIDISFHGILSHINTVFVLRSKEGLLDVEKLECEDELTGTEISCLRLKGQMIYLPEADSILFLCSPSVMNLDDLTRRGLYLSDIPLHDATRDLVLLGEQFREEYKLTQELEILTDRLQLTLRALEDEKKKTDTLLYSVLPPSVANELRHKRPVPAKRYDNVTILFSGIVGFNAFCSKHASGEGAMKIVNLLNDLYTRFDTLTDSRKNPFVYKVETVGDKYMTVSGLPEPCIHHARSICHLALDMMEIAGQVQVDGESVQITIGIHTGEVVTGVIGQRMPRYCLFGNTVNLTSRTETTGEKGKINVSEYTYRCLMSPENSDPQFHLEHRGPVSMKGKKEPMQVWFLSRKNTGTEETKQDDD
Assay: Cell-Based sGC Functional Assay (CASA Assay), cGMP by HTRF in CHO-K1/sGC cells
Conditions: percent activation relative to maximum cGMP production of Compound A (= 100%)
Property: % Act.; scope: individual compounds
// return numeric value only (unit: %, not printed)

The examples below pair each entry with its known result.
Report % Act. for O=C1Nc2nc(-c3cn4ccnc4c(Cc4ccccc4F)n3)ncc2C1(C(=O)NC1CC1)C1CC1 (single isomer, unassigned) [Example 70B] please. 130

Repeat with CC1(C(=O)NC2CC2)C(=O)Nc2nc(-c3cn4ccnc4c(Cc4ccccc4F)n3)ncc21 (single isomer, unassigned) [Example 69B] 118

Repeat with CC1(C(=O)NC2CC2)C(=O)Nc2nc(-c3cn4ccnc4c(Cc4ccc(F)cc4)n3)ncc21 (single isomer, unassigned) [Example 67B] 149

Repeat with CC1(C(=O)NC2CC2)C(=O)Nc2nc(-c3cn4ccnc4c(Cc4ccccc4F)n3)ncc21 (single isomer, unassigned) [Example 69A] 179

Repeat with O=C1Nc2nc(-c3cn4ccnc4c(Cc4ccc(F)cc4)n3)ncc2C1(C(=O)NC1CC1)C1CC1 (single isomer, unassigned) [Example 68B] 120

Let's switch to this compound now.
Report % Act. for O=C1Nc2nc(-c3cn4ccnc4c(Cc4ccccc4F)n3)ncc2C1(C(=O)NC1CC1)C1CC1 (single isomer, unassigned) [Example 70A] please. 169
